Tested on: male and female ICR mice
protocol_text: Horizontal locomotor activity, 60‐min session
Type: in vivo, mouse
condition_notes: Mus musculus, sc, 1 h, read-out: E max (95%CL), % Methadone E max
Decision: Emax >= 10% yields True, all other cases yield False.

These recorded examples may help you get a feel for the data.
| smiles_text | measured_target | label_class |
| --- | --- | --- |
| OCC[C@H]1[C@@H]2CCC[C@@]1(c1cccc(O)c1)CCN2CCc1ccccc1 | male and female ICR mice | True |
| C/C=C\[C@@H]1[C@H]2CCC[C@]1(c1cccc(O)c1)CCN2CCc1ccccc1 | male and female ICR mice | True |
| C=C[C@@H]1[C@H]2CCC[C@]1(c1cccc(O)c1)CCN2CCc1ccccc1 | male and female ICR mice | True |
| C=C[C@H]1[C@H]2CCC[C@]1(c1cccc(O)c1)CCN2CCc1ccccc1 | male and female ICR mice | True |
| OC/C=C/[C@H]1[C@@H]2CCC[C@@]1(c1cccc(O)c1)CCN2CCc1ccccc1 | male and female ICR mice | False |

Next item in the queue.
State whether the measured Emax reaches 10%, counting equality as reaching it, for "CCC[C@H]1[C@@H]2CCC[C@@]1(c1cccc(O)c1)CCN2CCc1ccccc1"
True

These data points were gathered from paper PMC10307939.
